For each entry below, report its self-cleavage value.
B1: Hairpin Ribozyme (parent)
chain: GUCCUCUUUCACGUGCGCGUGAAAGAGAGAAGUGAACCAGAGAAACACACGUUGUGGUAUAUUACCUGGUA

# Variants of: B1
# assay remarks: self-cleavage, relative activity (ratio to wild type); higher = more cleavage; co-transcriptional

Reported self-cleavage ( C12A C48A ) = 0.162

In plain terms, C12A A28U has a documented self-cleavage of 0.34

Please fill in: self-cleavage reported for C18A A24C = 0.994

Short answer for C16U C50A : self-cleavage was 0.295

The value of self-cleavage measured for the variant C16A A64C turned out to be 0.133
